Molecular target: KRAS G12S (Homo sapiens, UniProt P01116+P62937, G12S)
Sequence (P01116 1-169 isoform P01116-2 G12S limits assumed): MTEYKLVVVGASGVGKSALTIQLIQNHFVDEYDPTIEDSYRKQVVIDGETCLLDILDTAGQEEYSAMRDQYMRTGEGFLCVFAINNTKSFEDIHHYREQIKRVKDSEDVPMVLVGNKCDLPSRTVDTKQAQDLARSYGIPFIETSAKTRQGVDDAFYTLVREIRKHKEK
Sequence (P62937 whole entry): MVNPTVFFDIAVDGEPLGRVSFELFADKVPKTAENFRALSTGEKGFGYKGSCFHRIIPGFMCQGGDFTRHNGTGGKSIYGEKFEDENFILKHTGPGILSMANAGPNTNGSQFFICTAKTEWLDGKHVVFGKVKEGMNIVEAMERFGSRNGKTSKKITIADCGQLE
Test: Ras-Raf disruption / FRET / MOA assay (BRAF RBD)
Type: biochemical
Settings: Ras-Raf disruption, with Cyclophilin A; read-out: KRAS G12S FRET data IC50
readout_kind: IC50

Reported IC50 for CCn1c(-c2cccnc2[C@H](C)OC)c2c3cc(ccc31)-c1cc(O)cc(c1)C[C@H](NC(=O)[C@H](C(C)C)N(C)C(=O)[C@]1(F)CCN(C(=O)[C@H]3CN3)C1)C(=O)N1CCC[C@H](N1)C(=O)OCC(C)(C)C2 (atropisomer, axis not shown) was 100 to 1000 nM

Reported IC50 for CCn1c(-c2cccnc2[C@H](C)OC)c2c3cc(ccc31)-c1cccc(c1)C[C@H](NC(=O)[C@H](C(C)C)N(C)C(=O)[C@H]1CC[C@H](N=C=NC(C)C)C1)C(=O)N1CCC[C@H](N1)C(=O)OCC(C)(C)C2 was > 10000 nM

Reported IC50 for CCn1c(-c2cccnc2[C@H](C)OC)c2c3cc(ccc31)-c1cc(O)cc(c1)C[C@H](NC(=O)[C@H](C(C)C)N(C)C(=O)[C@H]1CCCN(C(=O)[C@@H]3CN3)C1)C(=O)N1CCC[C@H](N1)C(=O)OCC(C)(C)C2 was 100 to 1000 nM

Reported IC50 for CCn1c(-c2cccnc2[C@H](C)OC)c2c3cc(ccc31)-c1cc(O)cc(c1)C[C@H](NC(=O)[C@H](C(C)C)N(C)C(=O)[C@@H]1CN1)C(=O)N1CCC[C@H](N1)C(=O)OCC(C)(C)C2 was 10 to 100 nM

Here's the next entry for you.
Reported IC50 for CCn1c(-c2cccnc2[C@H](C)OC)c2c3cc(ccc31)-c1csc(n1)C[C@H](NC(=O)[C@H](C(C)C)N(C)C(=O)N1CCCN(C(=O)[C@@H]3CN3)CC1)C(=O)N1CCC[C@H](N1)C(=O)OCC(C)(C)C2 (atropisomer, axis not shown) was 100 to 1000 nM

Value source: patent US20230233569A1
